Molecular target: Serine/threonine-protein kinase ATR (Homo sapiens)
Sequence (Q13535 whole entry): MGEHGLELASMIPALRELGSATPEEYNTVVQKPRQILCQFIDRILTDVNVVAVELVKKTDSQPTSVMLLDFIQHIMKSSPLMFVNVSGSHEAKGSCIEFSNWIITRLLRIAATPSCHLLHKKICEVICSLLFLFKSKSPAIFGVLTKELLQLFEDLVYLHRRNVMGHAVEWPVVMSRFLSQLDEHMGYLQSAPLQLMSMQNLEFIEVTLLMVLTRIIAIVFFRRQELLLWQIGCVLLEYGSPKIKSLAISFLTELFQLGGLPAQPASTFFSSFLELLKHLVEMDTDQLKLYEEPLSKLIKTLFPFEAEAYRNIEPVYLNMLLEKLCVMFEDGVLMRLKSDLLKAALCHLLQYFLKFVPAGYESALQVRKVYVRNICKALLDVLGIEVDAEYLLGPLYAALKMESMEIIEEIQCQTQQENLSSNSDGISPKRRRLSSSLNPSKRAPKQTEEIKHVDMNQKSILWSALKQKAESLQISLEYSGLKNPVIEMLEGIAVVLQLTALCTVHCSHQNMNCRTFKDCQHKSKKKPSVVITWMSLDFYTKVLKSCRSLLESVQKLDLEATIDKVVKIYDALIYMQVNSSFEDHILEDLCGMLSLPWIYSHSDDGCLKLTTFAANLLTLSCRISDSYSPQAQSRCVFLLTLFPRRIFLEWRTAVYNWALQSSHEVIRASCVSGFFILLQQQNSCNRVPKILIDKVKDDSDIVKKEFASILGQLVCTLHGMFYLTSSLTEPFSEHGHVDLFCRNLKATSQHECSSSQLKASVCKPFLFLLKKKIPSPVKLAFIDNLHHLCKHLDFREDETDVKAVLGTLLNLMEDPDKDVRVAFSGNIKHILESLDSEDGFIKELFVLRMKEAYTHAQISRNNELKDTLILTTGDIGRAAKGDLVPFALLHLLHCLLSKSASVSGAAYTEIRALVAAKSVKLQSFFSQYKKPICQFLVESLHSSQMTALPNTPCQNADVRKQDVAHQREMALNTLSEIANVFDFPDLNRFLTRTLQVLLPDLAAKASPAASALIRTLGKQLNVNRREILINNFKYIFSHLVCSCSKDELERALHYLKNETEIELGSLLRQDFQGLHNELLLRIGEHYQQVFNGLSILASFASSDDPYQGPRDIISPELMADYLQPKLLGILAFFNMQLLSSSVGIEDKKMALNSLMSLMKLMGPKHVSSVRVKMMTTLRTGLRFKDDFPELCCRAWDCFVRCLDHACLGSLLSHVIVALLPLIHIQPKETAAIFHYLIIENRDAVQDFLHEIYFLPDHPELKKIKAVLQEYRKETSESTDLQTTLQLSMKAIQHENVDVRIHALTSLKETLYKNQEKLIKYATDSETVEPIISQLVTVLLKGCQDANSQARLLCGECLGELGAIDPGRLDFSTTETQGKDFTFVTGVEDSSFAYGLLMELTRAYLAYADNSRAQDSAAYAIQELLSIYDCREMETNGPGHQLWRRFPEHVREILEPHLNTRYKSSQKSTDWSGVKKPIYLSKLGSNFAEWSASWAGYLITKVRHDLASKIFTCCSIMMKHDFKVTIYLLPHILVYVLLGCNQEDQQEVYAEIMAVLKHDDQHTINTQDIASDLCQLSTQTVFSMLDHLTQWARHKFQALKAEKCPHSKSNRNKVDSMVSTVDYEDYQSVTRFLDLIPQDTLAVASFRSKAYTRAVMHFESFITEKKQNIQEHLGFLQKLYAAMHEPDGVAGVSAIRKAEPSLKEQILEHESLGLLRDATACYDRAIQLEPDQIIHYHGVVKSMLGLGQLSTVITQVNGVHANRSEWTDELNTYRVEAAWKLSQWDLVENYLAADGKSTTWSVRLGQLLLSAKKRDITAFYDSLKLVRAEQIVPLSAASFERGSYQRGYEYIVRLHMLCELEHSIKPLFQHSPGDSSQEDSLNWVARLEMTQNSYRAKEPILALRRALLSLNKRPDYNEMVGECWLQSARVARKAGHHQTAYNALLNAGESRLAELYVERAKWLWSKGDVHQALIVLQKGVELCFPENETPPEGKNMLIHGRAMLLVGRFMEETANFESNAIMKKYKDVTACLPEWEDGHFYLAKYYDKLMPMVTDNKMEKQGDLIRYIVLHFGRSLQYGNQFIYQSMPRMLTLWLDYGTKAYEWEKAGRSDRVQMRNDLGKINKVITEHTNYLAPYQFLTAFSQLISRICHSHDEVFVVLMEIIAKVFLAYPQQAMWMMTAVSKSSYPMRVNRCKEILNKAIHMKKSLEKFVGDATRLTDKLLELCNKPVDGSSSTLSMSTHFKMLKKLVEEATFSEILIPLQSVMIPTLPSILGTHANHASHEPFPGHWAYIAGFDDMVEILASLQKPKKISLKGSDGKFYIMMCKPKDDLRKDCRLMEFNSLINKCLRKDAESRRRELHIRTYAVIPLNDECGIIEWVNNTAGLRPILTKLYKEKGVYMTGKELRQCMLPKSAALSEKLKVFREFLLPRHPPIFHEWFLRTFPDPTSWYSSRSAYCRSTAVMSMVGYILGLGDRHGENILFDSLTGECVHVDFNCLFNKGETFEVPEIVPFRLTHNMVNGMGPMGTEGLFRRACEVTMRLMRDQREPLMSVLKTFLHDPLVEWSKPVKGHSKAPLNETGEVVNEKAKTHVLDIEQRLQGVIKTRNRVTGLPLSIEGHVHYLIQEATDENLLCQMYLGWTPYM
measurementLabel: IC50 (nM)

- smilesText: "C[C@@H]1COCCN1c1nc(-c2ccnc3[nH]ccc23)nc2c1ccn2S(C)(=O)=O"
  valueReported: 2.5

====

Target: Tyrosine-protein kinase Lyn (Homo sapiens, UniProt P07948)
Sequence (P07948 whole entry): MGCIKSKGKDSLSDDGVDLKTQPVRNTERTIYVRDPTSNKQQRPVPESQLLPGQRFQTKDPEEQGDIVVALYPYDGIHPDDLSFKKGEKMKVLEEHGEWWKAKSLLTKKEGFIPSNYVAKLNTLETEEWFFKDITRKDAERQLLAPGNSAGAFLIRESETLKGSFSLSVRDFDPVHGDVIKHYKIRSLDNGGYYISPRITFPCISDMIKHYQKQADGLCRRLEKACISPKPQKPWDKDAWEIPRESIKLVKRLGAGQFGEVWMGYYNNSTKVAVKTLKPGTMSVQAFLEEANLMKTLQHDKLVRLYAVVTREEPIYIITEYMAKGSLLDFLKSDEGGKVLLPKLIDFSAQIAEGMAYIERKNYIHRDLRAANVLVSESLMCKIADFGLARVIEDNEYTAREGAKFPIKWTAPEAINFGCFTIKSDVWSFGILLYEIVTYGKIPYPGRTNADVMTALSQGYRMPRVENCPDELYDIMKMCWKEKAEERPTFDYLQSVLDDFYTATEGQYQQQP
measurementLabel: IC50

- smilesText: "C[C@@H]1COCCN1c1nc(-c2ccnc3[nH]ccc23)nc2c1ccn2S(C)(=O)=O"
  systemUnderTest: "Tyrosine-protein kinase Lyn (Homo sapiens, UniProt P07948)"
  valueReported: "> 10 µM"

====

Assay: Apparent permeability across apical to basolateral side in human Caco-2 cells
Type: ADME, cell-based
# Papp A→B per entry

- smilesText: "C[C@@H]1COCCN1c1nc(-c2cncc3[nH]ccc23)nc2c1ccn2S(C)(=O)=O"
  Papp A→B / ×10⁻⁶ cm/s: 21.5
- smilesText: "C[C@@H]1COCCN1c1nc(-c2ccnc3[nH]ccc23)nc2c1ccn2S(C)(=O)=O"
  Papp A→B / ×10⁻⁶ cm/s: 39.6

Attribution: ChEMBL document CHEMBL5523766
